# Test system: MDA-MB-435
# ASSAY NOTES: NCI tumour cell line growth inhibition, 48 h
The source made the active and inactive calls. Rule as the data show it: active = GI50 up to about 1.1 µM and inactive = higher.
Field 'call' accepts active, inactive

Consider the worked cases shown below.
{"columns": ["COMPOUND", "DISCRETE LABEL"],
 "data": [
  ["CN1C(=O)N/C(=C\\c2ccc(S(=O)(=O)N/N=C\\C(O)C(O)C(O)CO)cc2)C1=O (centres undefined)", "inactive"],
  ["CC(/C=N/N=C1NCCCCN1)=N\\N=C1NCCCCN1", "inactive"],
  ["Nc1nc(=S)n(-c2ccc(Cl)cc2)c2nc3ccccc3cc12", "inactive"],
  ["CC1CCC2(NC1)OC1CC3C4CC=C5CC(OC6OC(CO)C(OC7OC(C)C(O)C(O)C7O)C(O)C6OC6OC(C)C(O)C(O)C6O)CCC5(C)C4CCC3(C)C1C2C (centres undefined)", "inactive"],
  ["CC1=NNC(=O)[C@H]2[C@H]1CCC1[C@@H]2CC[C@]2(C)[C@@H](O)CC[C@@H]12 (some centres undefined)", "inactive"]
]}

Outcome logged for CCCCCCCCCCCCCCCCCCNc1ccn(C2OC(COP(=O)(O)OCC3OC(n4cc(F)c(NCCCCCCCCCCCCCCCCCC)nc4=O)CC3O)C(O)C2O)c(=O)n1 (centres undefined) in this assay:
inactive

For c1c[nH]c(-c2cccc3nsnc23)c1 , what call appears in the results of this test?
inactive

Could you kindly confirm the outcome this assay logged for C/C=C/C(O)P(=O)(OC)OC (centres undefined) ?
active

What is the recorded call for this compound in the test? COC(=O)c1ccc(/N=N/N(C)COc2ccc(C#N)cc2)cc1
inactive

Lab log entry: Cn1c(=O)c2c(nc(NCCCCl)n2CC(=O)O)n(C)c1=O — outcome as called in the assay?
inactive

Which outcome did this test record for the compound CC1=NN(c2nc(N)nc(/C(C#N)=C\c3csc([N+](=O)[O-])c3)n2)C(C)(C)C1 ?
inactive

Reference for the values: ChEMBL document CHEMBL1201862
